Target: T1, human DLL3 (immobilized human DLL3 or h293-hDLL3 cells) (human, UniProt Q9NYJ7 27-492, limits assumed)
T1 construct: the sentence says 'immobilized human DLL3 or h293-hDLL3 cells'
T1 sequence: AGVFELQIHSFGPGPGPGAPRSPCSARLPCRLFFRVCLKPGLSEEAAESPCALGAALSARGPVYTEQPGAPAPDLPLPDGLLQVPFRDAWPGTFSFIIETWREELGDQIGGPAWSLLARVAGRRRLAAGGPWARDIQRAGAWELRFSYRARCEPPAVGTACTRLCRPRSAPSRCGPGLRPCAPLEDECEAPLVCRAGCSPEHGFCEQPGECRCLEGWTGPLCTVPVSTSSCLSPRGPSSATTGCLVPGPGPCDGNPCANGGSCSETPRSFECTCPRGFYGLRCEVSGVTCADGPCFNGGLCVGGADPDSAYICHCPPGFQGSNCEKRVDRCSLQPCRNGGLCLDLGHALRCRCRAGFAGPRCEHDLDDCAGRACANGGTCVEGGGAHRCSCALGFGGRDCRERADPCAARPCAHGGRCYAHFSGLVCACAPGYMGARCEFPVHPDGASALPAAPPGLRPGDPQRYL
Assay: hybridoma screening on immobilized human DLL3 or on h293-hDLL3 cells
MEASURED ATTRIBUTE: binding result

{"columns": ["BINDER", "VALUE REPORTED"],
 "data": [
  ["SC16.144 (antibody, V domains shown, murine mAb; variable regions only) VH: QIQLVQSGPELKKPGETVKISCKASGYTFTNYGMNWVKQAPGKGLKWVGWINTYTGEPTYADDFKGRFAFSLETSASTAYLQIDNLKNEDTATYFCARVGDYVGFDYWGQGTTLTVSS VL: SIVMTQTPKFLLVSAGDRVTITCKASQSVSNDVGWYQQKPGQSPKLLIYYASNRYNGVPDRFTGSGYGTDFTFTISTVQAEDLAVYFCQQDYSSPWTFGGGTKLEIK", "binds"],
  ["SC16.58 (antibody, V domains shown, murine mAb; variable regions only) VH: DVQLVESGGGLVQPGGSRKLSCAASGFTFSSFGMHWVRQAPEKGLEWVAYISSGSSNIYYADTVKGRFTISRDNPKNTLFLQMTSLRSEDTAMYYCARGYYGNYDAMDYWGQGTSVTVSS VL: DIQMTQSPASLSSSVGETVTITCRASENIYSYLAWYQQKQGKSPQLLVYNAKTLAEGVPSRFSGSGSGTQFSLKINSLQPEDFGTYYCQHHYDSPLTFGAGTKLELR", "binds"],
  ["SC16.107 (antibody, V domains shown, murine mAb; variable regions only) VH: EVQLQQSGPELVKPGASVKMSCKASGYTFTNYVMHWVKQKPGQGLEWIGYINPYNDGTKYNEKFKGKATLTSDKSSTTAYMALSSLTSEDSAVYYCAVAYYSNWGFAYWGQGTLVTVSA VL: DIVMTQSHKFMSTSVGDRVSITCKASQDVNTAVGWYQQKPGQSPKLLIYSASYRYTGVPDRFTGSGSGTDFTFTISSVQAEDLAVYYCQQHYSSPYTFGGGTKVEIK", "binds"]
]}
